Just for reference, PubChem BioAssay AID2289 is where these values come from.

protocol description: qHTS Assay for Modulators of miRNAs and/or Inhibitors of miR-21; note: potency is the fitted concentration of half-maximal effect; nearly all actives have a fitted effect of over 55% in size
cond: HeLa miR-21-FLuc reporter, luciferase luminescence, 48 h; actives lower the signal
Among all 340,000 compounds or so, about 3,300 (0.97%) were called active. Inconclusive results (about 9%) are left out. The list shows a part of the results.
// reported Potency for each item listed

Need Potency, item CN(c1ccccc1)c1nc2ccsc2c(=O)s1
12.6 µM (active)

----------
// reported Potency for each item listed
protocol description: qHTS Assay for Modulators of miRNAs and/or Inhibitors of miR-21; note: potency is the fitted concentration of half-maximal effect; nearly all actives have a fitted effect of over 55% in size
cond: HeLa miR-21-FLuc reporter, luciferase luminescence, 48 h; actives lower the signal
In all, about 340,000 compounds went through this assay and about 3,300 (0.97%) were called active. About 9% were inconclusive and are not listed. The list shows a part of the results.

// known answers, use as guide
compound	Potency
CC(Cc1ccccc1)NC(=O)c1cc2ccccc2o1 (stereo not given)	6.56 µM (active)
O=C1/C(=C/c2ccc(O)c(O)c2)Oc2cc(O)ccc21	8.26 µM (active)
CCOC(=O)c1cc(C(=O)Nc2ccccc2F)nn1C	1.85 µM (active)
COc1ccccc1NS(=O)(=O)c1cccc(NC(=O)c2cc3ccccc3oc2=O)c1	4.65 µM (active)
CCCn1ncc2c(Nc3ccc(C)c(C)c3)ncnc21	4.65 µM (active)
CCN1C(=O)/C(=C/C=C2/SCCN2C)SC1=S	0.185 µM (active)

Need Potency, item Cc1cccc(NC(=O)c2cc(-c3cc(C)c(C)cc3O)n[nH]2)c1
0.736 µM (active)

Need Potency, item Nc1nccc(/C=C/c2ccc(Cl)cc2)n1
2.07 µM (active)

Need Potency, item C/C(=N\Nc1ccccc1C(=O)O)c1ccncc1
8.26 µM (active)

Need Potency, item CC(C)(C)c1ccc(NC(=O)c2ccc(=O)[nH]n2)cc1
0.826 µM (active)

Need Potency, item Oc1ccc(NC(=S)N=Nc2c(O)[nH]c3ccccc23)cc1
11.7 µM (active)

Need Potency, item COc1ccc(S(=O)(=O)Nc2ccccc2OC)cc1NC(=O)c1cc2ccccc2oc1=O
6.56 µM (active)

----------
protocol description: qHTS Assay for Modulators of miRNAs and/or Inhibitors of miR-21; note: potency is the fitted concentration of half-maximal effect; nearly all actives have a fitted effect of over 55% in size
cond: HeLa miR-21-FLuc reporter, luciferase luminescence, 48 h; actives lower the signal
Hit rate of the full screen: of about 340,000 compounds, about 3,300 (0.97%) were called active. About 9% were inconclusive and are not listed. This is one part of the list.
// reported Potency for each item listed

// known answers, use as guide
compound	property measured	recorded measurement
Cn1c(C(=O)NC2CCCCC2)cc2sccc21	Potency	6.56 µM (active)
O=C(CCCc1ccccc1)c1ccccc1	Potency	2.07 µM (active)
O/N=C/c1ccnc(SCc2ccccc2)n1	Potency	10.4 µM (active)
Cc1ccc(NC(=O)Nc2cccc(C)n2)cc1	Potency	2.07 µM (active)
Fc1cc2nc(-c3ccncc3)[nH]c2cc1F	Potency	16.5 µM (active)
CC(Cc1cccs1)NC(=O)c1cccc(Cl)c1 (centres undefined)	Potency	6.56 µM (active)

Need Potency, item Nc1c(-c2cccc(Cl)c2)cnc2c(-c3ccccc3)cnn12
1.65 µM (active)

Need Potency, item COc1cc(/C=N/Nc2ccc(C(=O)O)cc2)cc(OC)c1OC
2.33 µM (active)

Need Potency, item Cc1cc(N)n2ncc(-c3ccccc3)c2n1
3.29 µM (active)

Need Potency, item COc1ccc(CNC(=O)c2ccc3c(c2)nc2n3CCCCC2)cc1
4.65 µM (active)

Need Potency, item COc1ccc(/C=N/Nc2ccc(C(=O)O)cc2)cc1Br
0.104 µM (active)

Need Potency, item Cc1nc2ccc(NC(=O)c3ccc(Br)o3)cc2s1
2.93 µM (active)

Need Potency, item Nc1c(-c2ccc(Cl)cc2)cnn1-c1ccccc1
1.65 µM (active)

Need Potency, item O=[N+]([O-])c1ccc2nc(-c3ccncc3)[nH]c2c1
18.5 µM (active)

Need Potency, item O=c1[nH]c2ccccc2c2cn(-c3ccccc3)nc12
4.65 µM (active)

Need Potency, item O=C(NC1CCCC1)c1cc(-c2cccs2)on1
2.33 µM (active)

Need Potency, item C=CCSc1nnc(-c2ccc([N+](=O)[O-])cc2)o1
6.56 µM (active)

Need Potency, item Cc1ccnc(NC(=S)NC(=O)c2ccco2)c1
1.17 µM (active)

Need Potency, item C/C(=N\NC(=O)c1cccc(N/N=C(\C)c2ccco2)c1)c1ccco1
6.56 µM (active)

Need Potency, item COCc1cc(C)nc2sc(C(=O)Nc3ccccc3F)c(N)c12
18.5 µM (active)
